Biological target: D(4) dopamine receptor (Homo sapiens)
Sequence (P21917 whole entry): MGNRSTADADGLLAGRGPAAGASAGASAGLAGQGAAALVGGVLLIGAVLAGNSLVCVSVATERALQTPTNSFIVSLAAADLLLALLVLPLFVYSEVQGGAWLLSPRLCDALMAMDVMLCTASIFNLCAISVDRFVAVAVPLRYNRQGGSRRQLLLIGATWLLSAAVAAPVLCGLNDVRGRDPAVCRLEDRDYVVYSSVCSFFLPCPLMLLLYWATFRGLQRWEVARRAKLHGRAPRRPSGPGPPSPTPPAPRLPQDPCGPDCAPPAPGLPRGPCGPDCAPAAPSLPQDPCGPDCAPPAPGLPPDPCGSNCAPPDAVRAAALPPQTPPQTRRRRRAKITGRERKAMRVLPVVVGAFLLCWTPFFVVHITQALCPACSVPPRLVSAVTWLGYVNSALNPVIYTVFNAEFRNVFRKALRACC
Hi there, I'd appreciate the recorded pKi for every entry that follows.
Conceptually, pKi converts a concentration in mol/L into minus its log10.

-- ask I would be grateful if you could share the reported pKi for Clc1ccc(N2CCN(Cc3cn4ccccc4n3)CC2)cc1Cl .
-- reply 9.00

-- ask Now consider O=C1NC2CCCCN2C12CCN(CCCN1c3ccccc3CCc3ccc(Cl)cc31)CC2 (configuration not stated) .
-- reply 10.52

---

Target: 5-hydroxytryptamine receptor 3A (Homo sapiens, UniProt P46098)
Sequence (P46098 whole entry): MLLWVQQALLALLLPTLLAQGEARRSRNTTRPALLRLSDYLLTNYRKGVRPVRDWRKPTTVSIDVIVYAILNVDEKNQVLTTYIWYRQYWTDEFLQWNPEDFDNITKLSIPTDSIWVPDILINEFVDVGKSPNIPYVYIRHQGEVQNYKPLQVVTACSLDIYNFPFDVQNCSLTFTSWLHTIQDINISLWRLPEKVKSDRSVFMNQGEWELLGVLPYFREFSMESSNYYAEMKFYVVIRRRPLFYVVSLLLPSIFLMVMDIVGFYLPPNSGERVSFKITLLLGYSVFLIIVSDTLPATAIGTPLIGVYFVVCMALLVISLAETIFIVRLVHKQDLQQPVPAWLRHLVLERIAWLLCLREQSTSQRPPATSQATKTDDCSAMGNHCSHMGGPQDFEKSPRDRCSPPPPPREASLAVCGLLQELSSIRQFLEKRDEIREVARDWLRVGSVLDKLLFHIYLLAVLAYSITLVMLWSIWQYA
metricName: pKi
Reminder that pKi is minus the log10 of a molar concentration.

-- ask Entry under review: O=C(NC1CN2CCC1CC2)c1cc(Cl)cn2ccnc12 (stereo unspecified) . Reported pKi?
-- reply 7.92

---

Molecular target: 5-hydroxytryptamine receptor 4 (Homo sapiens)
Sequence (Q13639 whole entry): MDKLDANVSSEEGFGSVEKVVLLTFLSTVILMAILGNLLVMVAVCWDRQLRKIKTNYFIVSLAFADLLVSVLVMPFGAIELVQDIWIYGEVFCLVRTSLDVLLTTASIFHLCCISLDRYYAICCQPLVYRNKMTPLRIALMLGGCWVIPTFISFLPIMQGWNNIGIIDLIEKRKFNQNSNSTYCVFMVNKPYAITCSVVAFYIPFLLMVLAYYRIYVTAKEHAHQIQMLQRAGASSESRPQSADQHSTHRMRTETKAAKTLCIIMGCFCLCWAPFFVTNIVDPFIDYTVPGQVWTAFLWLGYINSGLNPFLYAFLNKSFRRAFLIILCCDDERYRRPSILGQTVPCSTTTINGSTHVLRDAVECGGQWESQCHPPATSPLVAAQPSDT
Assay: Inhibition of 5-HT4 receptor (unknown origin)
metricName: pEC50
// returns pEC50 (minus log10 of molar concentration), number only

-- ask Param item = CCN1C(=O)N(C(=O)NC2CC3CCC(C2)N3C)C2C=CC=CC21 (configuration not stated) ; retrieve measured pEC50.
-- reply 6.44

-- ask Another: CC(C)N1C(=O)N(C(=O)NC2CC3CCC(C2)N3C)C2C=CC=CC21 (configuration not stated)
-- reply 7.14

---

Target: Translocator protein (Homo sapiens)
Sequence (P30536 whole entry): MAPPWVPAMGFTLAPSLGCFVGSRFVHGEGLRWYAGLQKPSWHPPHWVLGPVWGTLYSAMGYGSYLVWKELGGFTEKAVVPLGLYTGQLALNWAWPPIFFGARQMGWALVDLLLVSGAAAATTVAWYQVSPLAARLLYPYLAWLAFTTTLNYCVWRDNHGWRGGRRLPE
Please respond with reported IC50 for every item in the list.
Please reply with the bare figure in nM and do not write the unit itself.

-- ask Fill in: IC50 of CCCN(CCC)C(=O)Cc1c(-c2ccccc2)nc2ccc([N+](=O)[O-])cn12 is ___
-- reply 11.8

-- ask Similarly, CCCN(CCC)C(=O)Cc1c(-c2ccc(Cl)cc2)nc2ccc(Cl)cn12 [ALPIDEM] ?
-- reply 7.9
